Data provenance is ChEMBL document CHEMBL4406894.

assay_comment: Clearance in ICR mouse at 2.5 mg/kg, iv
Type: ADME, organism-based
condition_notes: in vivo
parameter_measured: clearance (mL/min/kg)
Write down the numeric answer in mL/min/kg and omit the unit.

(Q) What measured clearance goes with COc1ccccc1OCC(O)CN1CCC(=C2c3ccc(Cl)cc3CCc3cccnc32)CC1 (racemic) ?
(A) 99.5

----------
assay_comment: Toxicity in Sprague-Dawley rat
condition_notes: in vivo
parameter_measured: MTD

(Q) Entry COc1ccccc1OCC(O)CN1CCC(=C2c3ccc(Cl)cc3CCc3cccnc32)CC1 (racemic) : reported MTD = ?
(A) 750 mg/kg
